# PCA + 0.1% SA (level of air entrainment by the candidate sacrificial agent) per record follows
experiment: Second sacrificial agent testing protocol: paste air measurements with DDBS (0.0125 wt %) and rating; conditions: Portland cement paste (PCA); […]
Respond with the number and no other words.

# example entries with known answers
compound: CCCCOCCO
measured.number: 2.0
//
compound: CCCCCC(=O)O
measured.number: 2.4
//
compound: CC(=O)CC(C)C
measured.number: 0.3
//
compound: NCCOCCO
measured.number: 0.5
//
compound: CCCCN
measured.number: 1.2
//
compound: CC(C)COCCO
measured.number: 1.7
//
compound: O[C@H]1[C@H](O)[C@@H](O)[C@H](O)[C@@H](O)[C@H]1O
measured.number: 0.1
//
compound: O=S(=O)(O)c1ccc(O)cc1 [4-Hydroxybenzenesulfonic acid]
measured.number: 0.1

Value lookup for PCA + 0.1% SA (level of air entrainment by the candidate sacrificial agent); key = `CNC(=O)NC`
0.5
